# Tested on: NCI-H1944
# Assay Details: relative viability (nuclei count vs DMSO), 5 days (fraction); higher = more cells survive
# Conditions: first compound 0.06325 µM
Property Label: relative viability
Response field accepts a number only; no unit should be typed.

// lookup relative viability for CCNC(=O)c1noc(-c2cc(C(C)C)c(O)cc2O)c1-c1ccc(CN2CCOCC2)cc1 [Luminespib] + Cc1nc(NC(=O)N2CCC[C@H]2C(N)=O)sc1-c1ccnc(C(C)(C)C(F)(F)F)c1 [Alpelisib] (partner 2 µM) 0.755

Thanks! And CCNC(=O)c1noc(-c2cc(C(C)C)c(O)cc2O)c1-c1ccc(CN2CCOCC2)cc1 [Luminespib] + N=C(N)NC(=N)NCCc1ccccc1 [Phenformin] (partner 250 µM) ? 0.112

Thanks! And CCNC(=O)c1noc(-c2cc(C(C)C)c(O)cc2O)c1-c1ccc(CN2CCOCC2)cc1 [Luminespib] + CC(=O)Nc1cccc(-n2c(=O)n(C3CC3)c(=O)c3c(Nc4ccc(I)cc4F)n(C)c(=O)c(C)c32)c1 [Trametinib] (partner 0.02 µM) ? 0.405

Thanks! And CCNC(=O)c1noc(-c2cc(C(C)C)c(O)cc2O)c1-c1ccc(CN2CCOCC2)cc1 [Luminespib] + Cc1cc(Nc2cc(N3CCN(C)CC3)nc(Sc3ccc(NC(=O)C4CC4)cc3)n2)n[nH]1 [Tozasertib] (partner 0.1 µM) ? 0.197

---

# Tested on: NCI-H2342
# Assay Details: relative viability (nuclei count vs DMSO), 5 days (fraction); higher = more cells survive
# Conditions: first compound 0.6325 µM
Binary call on relative viability with cut-off 0.8: strictly below means T, and equality or higher means F.

# strict comparison: is reported relative viability < 0.8? input = CN1CCN(CCOc2cc(OC3CCOCC3)c3c(Nc4c(Cl)ccc5c4OCO5)ncnc3c2)CC1 [Saracatinib] + NC(=O)Nc1cc(-c2cccc(F)c2)sc1C(=O)N[C@H]1CCCNC1 [AZD7762] (partner 0.2 µM) T

Thanks! And Cc1csc(=NC2CCCCC2)n1/N=C/c1ccc(O)c(O)c1O [MIM1] + Nc1nc2[nH]cc(CCc3ccc(C(=O)N[C@@H](CCC(=O)O)C(=O)O)cc3)c2c(=O)[nH]1 [Pemetrexed] (partner 0.2 µM) ? T

Thanks! And CN1CCN(CCOc2cc(OC3CCOCC3)c3c(Nc4c(Cl)ccc5c4OCO5)ncnc3c2)CC1 [Saracatinib] + CC(=O)c1c(C)c2cnc(Nc3ccc(N4CCNCC4)cn3)nc2n(C2CCCC2)c1=O [Palbociclib] (partner 0.5 µM) ? T

Thanks! And Cc1csc(=NC2CCCCC2)n1/N=C/c1ccc(O)c(O)c1O [MIM1] + N=C(N)NC(=N)NCCc1ccccc1 [Phenformin] (partner 250 µM) ? T

Thanks! And CN1CCN(CCOc2cc(OC3CCOCC3)c3c(Nc4c(Cl)ccc5c4OCO5)ncnc3c2)CC1 [Saracatinib] + COc1cc2c(Oc3ccc(NC(=O)C4(C(=O)Nc5ccc(F)cc5)CC4)cc3F)ccnc2cc1OCCCN1CCOCC1 [Foretinib] (partner 0.25 µM) ? F

---

Answer each item with its documented relative viability.
# Tested on: UMC-11
# Assay Details: relative viability (nuclei count vs DMSO), 5 days (fraction); higher = more cells survive
# Conditions: first compound 0.001 µM

// lookup relative viability for Cc1cn(-c2cc(NC(=O)c3ccc(C)c(Nc4nccc(-c5cccnc5)n4)c3)cc(C(F)(F)F)c2)cn1 [Nilotinib] + Nc1ncn([C@H]2C[C@H](O)[C@@H](CO)O2)c(=O)n1 [Decitabine] (partner 2 µM) 0.607

Thanks! And Cc1cn(-c2cc(NC(=O)c3ccc(C)c(Nc4nccc(-c5cccnc5)n4)c3)cc(C(F)(F)F)c2)cn1 [Nilotinib] + Cc1nc(Nc2ncc(C(=O)Nc3c(C)cccc3Cl)s2)cc(N2CCN(CCO)CC2)n1 [Dasatinib] (partner 0.075 µM) ? 0.41

Thanks! And Cc1cn(-c2cc(NC(=O)c3ccc(C)c(Nc4nccc(-c5cccnc5)n4)c3)cc(C(F)(F)F)c2)cn1 [Nilotinib] + CC(=O)Nc1cccc(-n2c(=O)n(C3CC3)c(=O)c3c(Nc4ccc(I)cc4F)n(C)c(=O)c(C)c32)c1 [Trametinib] (partner 0.02 µM) ? 0.635

Thanks! And Cc1cn(-c2cc(NC(=O)c3ccc(C)c(Nc4nccc(-c5cccnc5)n4)c3)cc(C(F)(F)F)c2)cn1 [Nilotinib] + Nc1nc2[nH]cc(CCc3ccc(C(=O)N[C@@H](CCC(=O)O)C(=O)O)cc3)c2c(=O)[nH]1 [Pemetrexed] (partner 0.2 µM) ? 0.789

Thanks! And Cc1cn(-c2cc(NC(=O)c3ccc(C)c(Nc4nccc(-c5cccnc5)n4)c3)cc(C(F)(F)F)c2)cn1 [Nilotinib] + C[C@@H](Oc1cc(-c2cnn(C3CCNCC3)c2)cnc1N)c1c(Cl)ccc(F)c1Cl [Crizotinib] (partner 1 µM) ? 0.561

Thanks! And Cc1cn(-c2cc(NC(=O)c3ccc(C)c(Nc4nccc(-c5cccnc5)n4)c3)cc(C(F)(F)F)c2)cn1 [Nilotinib] + O=C(CCCCCCC(=O)Nc1ccccc1)NO [Vorinostat] (partner 1 µM) ? 0.359

Thanks! And Cc1cn(-c2cc(NC(=O)c3ccc(C)c(Nc4nccc(-c5cccnc5)n4)c3)cc(C(F)(F)F)c2)cn1 [Nilotinib] + COc1cccc2cc(-c3nc([C@H]4CC[C@H](C(=O)O)CC4)n4ncnc(N)c34)[nH]c12 [OSI-027] (partner 0.5 µM) ? 0.482

---

# Tested on: EMC-BAC-2
# Assay Details: relative viability (nuclei count vs DMSO), 5 days (fraction); higher = more cells survive
# Conditions: first compound 0.001 µM
Property Label: relative viability
Response field accepts a number only; no unit should be typed.

Any idea what relative viability came out for Cc1cn(-c2cc(NC(=O)c3ccc(C)c(Nc4nccc(-c5cccnc5)n4)c3)cc(C(F)(F)F)c2)cn1 [Nilotinib] + NC(=O)Nc1cc(-c2cccc(F)c2)sc1C(=O)N[C@H]1CCCNC1 [AZD7762] (partner 0.2 µM) on EMC-BAC-2? 1.05

Thanks! And Cc1cn(-c2cc(NC(=O)c3ccc(C)c(Nc4nccc(-c5cccnc5)n4)c3)cc(C(F)(F)F)c2)cn1 [Nilotinib] + CS(=O)(=O)CCNCc1ccc(-c2ccc3ncnc(Nc4ccc(OCc5cccc(F)c5)c(Cl)c4)c3c2)o1 [Lapatinib] (partner 2 µM) ? 0.834

Thanks! And Cc1cn(-c2cc(NC(=O)c3ccc(C)c(Nc4nccc(-c5cccnc5)n4)c3)cc(C(F)(F)F)c2)cn1 [Nilotinib] + C[C@@H](Oc1cc(-c2cnn(C3CCNCC3)c2)cnc1N)c1c(Cl)ccc(F)c1Cl [Crizotinib] (partner 1 µM) ? 0.676

Thanks! And Cc1cn(-c2cc(NC(=O)c3ccc(C)c(Nc4nccc(-c5cccnc5)n4)c3)cc(C(F)(F)F)c2)cn1 [Nilotinib] + CS(=O)(=O)N1CCN(Cc2cc3nc(-c4cccc5[nH]ncc45)nc(N4CCOCC4)c3s2)CC1 [Pictilisib] (partner 1 µM) ? 0.528

Thanks! And Cc1cn(-c2cc(NC(=O)c3ccc(C)c(Nc4nccc(-c5cccnc5)n4)c3)cc(C(F)(F)F)c2)cn1 [Nilotinib] + CC(=O)c1c(C)c2cnc(Nc3ccc(N4CCNCC4)cn3)nc2n(C2CCCC2)c1=O [Palbociclib] (partner 0.5 µM) ? 0.477

Thanks! And Cc1cn(-c2cc(NC(=O)c3ccc(C)c(Nc4nccc(-c5cccnc5)n4)c3)cc(C(F)(F)F)c2)cn1 [Nilotinib] + CC(C)C[C@H](NC(=O)[C@H](Cc1ccccc1)NC(=O)c1cnccn1)B(O)O [Bortezomib] (partner 0.002 µM) ? 1.03

Thanks! And Cc1cn(-c2cc(NC(=O)c3ccc(C)c(Nc4nccc(-c5cccnc5)n4)c3)cc(C(F)(F)F)c2)cn1 [Nilotinib] + COc1cccc2cc(-c3nc([C@H]4CC[C@H](C(=O)O)CC4)n4ncnc(N)c34)[nH]c12 [OSI-027] (partner 0.5 µM) ? 0.348

Thanks! And Cc1cn(-c2cc(NC(=O)c3ccc(C)c(Nc4nccc(-c5cccnc5)n4)c3)cc(C(F)(F)F)c2)cn1 [Nilotinib] + Cc1nc(NC(=O)N2CCC[C@H]2C(N)=O)sc1-c1ccnc(C(C)(C)C(F)(F)F)c1 [Alpelisib] (partner 2 µM) ? 0.728

---

# Test system: NCI-H1651
# Assay Details: relative viability (nuclei count vs DMSO), 5 days (fraction); higher = more cells survive
# Conditions: first compound 0.006325 µM
Answer each item with its documented relative viability.
Response field accepts a number only; no unit should be typed.

// lookup relative viability for CCNC(=O)c1noc(-c2cc(C(C)C)c(O)cc2O)c1-c1ccc(CN2CCOCC2)cc1 [Luminespib] + Nc1ncn([C@H]2C[C@H](O)[C@@H](CO)O2)c(=O)n1 [Decitabine] (partner 2 µM) 0.553

Thanks! And CCNC(=O)c1noc(-c2cc(C(C)C)c(O)cc2O)c1-c1ccc(CN2CCOCC2)cc1 [Luminespib] + O=C(c1cc(Cc2n[nH]c(=O)c3ccccc23)ccc1F)N1CCN(C(=O)C2CC2)CC1 [Olaparib] (partner 8 µM) ? 0.177
